Hello, the source for this data is patent US5965582A, in case you need it.

- System: allergically-induced histamine release from mast cells of the peritoneal and pleura cavities
- ASSAY TEXT: Inhibition of allergically-induced histamine release in-vitro (CHIR)
- Type: cell-based, Sprague-Dawley rats
- CONDITION INFO: allergically-induced histamine release, rat mast cells, in vitro
VALUE TYPE: pIC50
For clarity, pIC50 is expressed as the negative log10 of concentration in mol/L.

Query string: Specify measured pIC50 for `CCOC(=O)Nc1ccc(OC)nc1NCCCc1cn(Cc2ccc(F)cc2)c2ccccc12` .
Result string: 6.27

###

- Tested on: IL-4 release from murine T-helper cells (D10.G4)
- ASSAY TEXT: Inhibition of anti-CD3-induced release of interleucin (IL)-4 in vitro (CIL4TC)
- Assay type: cell-based
- CONDITION INFO: Mus musculus, anti-CD3-induced IL-4 release, 16 hours
VALUE TYPE: pIC50
Give only the number. pIC50 is defined as minus log10 of concentration in molar units.

c1ccc(Cn2cc(CCNc3ccncc3)c3ccccc32)cc1 [D-22685] : 5.07

Query string: State its pIC50: Fc1ccc(Cn2cc(CCNc3ccncc3)c3ccccc32)cc1 [D-22561]
Result string: 5.25

Query string: Please supply the value of reported pIC50 for the item O=C(Cc1cn(Cc2ccc(F)cc2)c2ccccc12)Nc1ccncc1 [D-22558]
Result string: 5.10

Query string: Name the recorded pIC50 of the item CCOC(=O)Nc1ccc(OC)nc1NCCc1cn(Cc2ccccc2)c2ccccc12 [D-22992] in your answer.
Result string: 5.01

Query string: Give the reported value of pIC50 for this record: Cn1cc(CCCNc2ccncc2)c2ccccc21 [D-22697]
Result string: 5.14

###

Some compounds, each annotated with its measured log10 IC50.
- Tested on: allergically-induced histamine release from mast cells of the peritoneal and pleura cavities
- ASSAY TEXT: Inhibition of allergically-induced histamine release in-vitro (CHIR)
- Assay type: cell-based, Sprague-Dawley rats
- CONDITION INFO: Mast cell; allergically-induced histamine release, rat mast cells, in vitro
Hey, these are logged values: log10 of IC50, nM being the unit before logging.

These recorded examples may help you get a feel for the data.
CCn1cc(CC(=O)Nc2ccncc2)c2ccccc21 : 2.60
O=C(Cc1cn(Cc2ccc(F)cc2)c2ccccc12)Nc1ccncc1 : 1.20
CCOC(=O)Nc1ccc(OC)nc1NCCc1cn(Cc2ccccc2)c2ccccc12 : 2.83
Fc1ccc(Cn2cc(CCCNc3cccnc3)c3ccccc32)cc1 : 2.30

--- query ---
Query string: Provide one value: measured log10 IC50 of `CCOC(=O)Nc1ccc(N2CCc3c([nH]c4ccccc34)C2)nc1N`
Result string: 3.53
